- Test system: PXR:RXRa (NR concentration 270 nM, RXRa partner concentration 90 nM)
- Protocol summary: PBM binding z-score (relative to random genomic background probes); higher = stronger binding; sequences stand for … in GC…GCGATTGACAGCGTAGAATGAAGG

{"columns": ["Sequence", "Target desc", "PBM binding z-score"],
 "data": [
  ["CGACCAAGGTCATAGGAGGTCAGTGAAGACAGAT", "PXR:RXRa (NR concentration 270 nM, RXRa partner concentration 90 nM)", 6.88],
  ["TTACCAACGTGAAGGTCGTTGATCCCTCTGTAGA", "PXR:RXRa (NR concentration 270 nM, RXRa partner concentration 90 nM)", 1.42],
  ["ACTATTAGTTGACTCAGGGCAACCGATACGACGC", "PXR:RXRa (NR concentration 270 nM, RXRa partner concentration 90 nM)", 0.329],
  ["ATCTCTAGGTAAGACTCACTTCAGTGAAGAACGC", "PXR:RXRa (NR concentration 270 nM, RXRa partner concentration 90 nM)", -0.228],
  ["GCTCGGAGTACAAGGTCAGAGCTTTGTCCGTAGA", "PXR:RXRa (NR concentration 270 nM, RXRa partner concentration 90 nM)", 1.67],
  ["TCATTTAGGTAAAGGTGAAAGTCGAACGATATGA", "PXR:RXRa (NR concentration 270 nM, RXRa partner concentration 90 nM)", 1.35],
  ["TCATATAGGTAAACAGGTGAAAGACCGTAAGTTA", "PXR:RXRa (NR concentration 270 nM, RXRa partner concentration 90 nM)", 0.687],
  ["CTATCAAGGTGAACAAGGTCGTTGATTACTATTC", "PXR:RXRa (NR concentration 270 nM, RXRa partner concentration 90 nM)", 2.7],
  ["CGAATTAGGTCATTGACAGGACAGTGAATAGTAA", "PXR:RXRa (NR concentration 270 nM, RXRa partner concentration 90 nM)", 1.77],
  ["AGTCAACGTTCATCTAGGTAACGTAAGATATGCT", "PXR:RXRa (NR concentration 270 nM, RXRa partner concentration 90 nM)", -0.212],
  ["AGAACGAGGGCACGCAGAGTTGATAGCAGAGTAG", "PXR:RXRa (NR concentration 270 nM, RXRa partner concentration 90 nM)", 1.55],
  ["CGTCCAAGCTCAAGGTCAGTGAAAGAGACTCGAA", "PXR:RXRa (NR concentration 270 nM, RXRa partner concentration 90 nM)", 1.51],
  ["TTACCAAGGTGAAGGTCGTTGAACCCTCTGTAGA", "PXR:RXRa (NR concentration 270 nM, RXRa partner concentration 90 nM)", 3.18],
  ["TCTATTAGTTGATTAGGTCAACCGAAACAGCGGA", "PXR:RXRa (NR concentration 270 nM, RXRa partner concentration 90 nM)", 2.03],
  ["CCTATTAGTGGACCATAAGGGCAACCGAAGCTCG", "PXR:RXRa (NR concentration 270 nM, RXRa partner concentration 90 nM)", 0.215],
  ["ATCTCTAGGTAAAAGTTCACTGAATCCCGAGGAT", "PXR:RXRa (NR concentration 270 nM, RXRa partner concentration 90 nM)", 3.44],
  ["CCGACTGGGGCAAAGGTTACCTTACTCAGTACGA", "PXR:RXRa (NR concentration 270 nM, RXRa partner concentration 90 nM)", 2.22],
  ["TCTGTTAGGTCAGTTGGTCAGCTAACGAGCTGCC", "PXR:RXRa (NR concentration 270 nM, RXRa partner concentration 90 nM)", 0.988],
  ["TCTGCTAGGACAACGATGGTCAGCTAATCTGCTA", "PXR:RXRa (NR concentration 270 nM, RXRa partner concentration 90 nM)", -0.66],
  ["ACAGACAGGTGATGAAGGTGACTCAGGCTATCAT", "PXR:RXRa (NR concentration 270 nM, RXRa partner concentration 90 nM)", 0.114],
  ["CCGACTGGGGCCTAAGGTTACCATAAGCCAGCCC", "PXR:RXRa (NR concentration 270 nM, RXRa partner concentration 90 nM)", 0.127],
  ["CGTCCAAGGTCAGAGGAGGTCAGTGAAGACAGAT", "PXR:RXRa (NR concentration 270 nM, RXRa partner concentration 90 nM)", 6.58],
  ["CCTACTGGGCCAAAAAGGTCAATGATGCCGATAA", "PXR:RXRa (NR concentration 270 nM, RXRa partner concentration 90 nM)", 3.47],
  ["CCGACTGGGGCACAGGTTACCATACTCAGTACGA", "PXR:RXRa (NR concentration 270 nM, RXRa partner concentration 90 nM)", 0.174],
  ["AGTAGTTGGTCAGCTGAGGTCACACACAATTCGG", "PXR:RXRa (NR concentration 270 nM, RXRa partner concentration 90 nM)", 5.41],
  ["ATCTCTAGGTAACCAAGTTCAGTGCATGCCGAAC", "PXR:RXRa (NR concentration 270 nM, RXRa partner concentration 90 nM)", 2.2],
  ["CCTCGGAGGACAGAAGGTCACAGCTGTCCGCTTT", "PXR:RXRa (NR concentration 270 nM, RXRa partner concentration 90 nM)", 3.33],
  ["TCATATAGGTAAAGGTGAAAGTGGAACGATATGA", "PXR:RXRa (NR concentration 270 nM, RXRa partner concentration 90 nM)", 1.17],
  ["GCTCGGAGGACCAGGTCAGAGCTTTGTCCGTAGA", "PXR:RXRa (NR concentration 270 nM, RXRa partner concentration 90 nM)", 0.343],
  ["ATCGAAAGGTCGTGATGTGAGTATACAGAAAGGC", "PXR:RXRa (NR concentration 270 nM, RXRa partner concentration 90 nM)", 2.71],
  ["CAGCCTAGGTCAGGGCCGGTATAGGAGGAACGTT", "PXR:RXRa (NR concentration 270 nM, RXRa partner concentration 90 nM)", 0.229],
  ["ACTAGCAGGCCAAGTTTGGGTCACGCAAACAAAG", "PXR:RXRa (NR concentration 270 nM, RXRa partner concentration 90 nM)", 1.61],
  ["ATCCCTAGGTAACAAGTTCAGTGAAAGAGAGGAC", "PXR:RXRa (NR concentration 270 nM, RXRa partner concentration 90 nM)", 1.7],
  ["TCTATTAGTTGGAGGGCAACCGACGAGTCCGTTT", "PXR:RXRa (NR concentration 270 nM, RXRa partner concentration 90 nM)", 1.08],
  ["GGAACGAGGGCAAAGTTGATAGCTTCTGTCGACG", "PXR:RXRa (NR concentration 270 nM, RXRa partner concentration 90 nM)", 0.96],
  ["ACTTACGGGTCAACGAGGCTATAGCACGCGTATA", "PXR:RXRa (NR concentration 270 nM, RXRa partner concentration 90 nM)", 3.59],
  ["CCGAGTAGGGTATGGGGCATTCAGGCAACGGTGA", "PXR:RXRa (NR concentration 270 nM, RXRa partner concentration 90 nM)", -0.379],
  ["CAAACTAGGTCAAGAGGTCACAGTCCGCTTCCCG", "PXR:RXRa (NR concentration 270 nM, RXRa partner concentration 90 nM)", 5.99],
  ["CAAACTAGGTCAAAGGTCCAAGTCGAGCCAACCA", "PXR:RXRa (NR concentration 270 nM, RXRa partner concentration 90 nM)", 3.24],
  ["ACTCTTAGTTGAGACGAGGGCAACCGATAGGTTG", "PXR:RXRa (NR concentration 270 nM, RXRa partner concentration 90 nM)", 1.34],
  ["ATCGAAAGGCCGAGGTGAGTATAGAGAAAGGGAA", "PXR:RXRa (NR concentration 270 nM, RXRa partner concentration 90 nM)", -0.348],
  ["ATATGTAGGTTATCGGGTCATTCGGTTTGCGCAT", "PXR:RXRa (NR concentration 270 nM, RXRa partner concentration 90 nM)", 3.5],
  ["CCTTACGGATCACTGACAGGTTATAGCATTTGGA", "PXR:RXRa (NR concentration 270 nM, RXRa partner concentration 90 nM)", 0.356],
  ["CGAACGTGGGCATGAGTTGATAGCAAATGCCGAT", "PXR:RXRa (NR concentration 270 nM, RXRa partner concentration 90 nM)", -0.855],
  ["TAGCCTAGGTCATTCAGGGGCCAGTATTGAAAGC", "PXR:RXRa (NR concentration 270 nM, RXRa partner concentration 90 nM)", 2.72],
  ["ATATGTAGGTTAAGGGTGATTCAGGTTGGTTCGC", "PXR:RXRa (NR concentration 270 nM, RXRa partner concentration 90 nM)", 1.63],
  ["GCGACTGGGGCATCAGCAGGTTACCTTAACTTAA", "PXR:RXRa (NR concentration 270 nM, RXRa partner concentration 90 nM)", 0.367],
  ["ATCGAAAGGTCGAGGTGCGTATAGAGAAAGGGAA", "PXR:RXRa (NR concentration 270 nM, RXRa partner concentration 90 nM)", 2.33],
  ["TCTTGTAGATCAGCGGGTTAAGAAAGCTGGCCAA", "PXR:RXRa (NR concentration 270 nM, RXRa partner concentration 90 nM)", 0.359],
  ["TTACCAAGGTGAAAGGTAGTTGATGCACGCCTTG", "PXR:RXRa (NR concentration 270 nM, RXRa partner concentration 90 nM)", 0.603],
  ["TAACCTAGGTCATTCAGGGGCCAGTATAGAAAGC", "PXR:RXRa (NR concentration 270 nM, RXRa partner concentration 90 nM)", 3.09]
]}
